Listed here: items and their measured EC50.
Test system: RSV A2 strain
Experiment: In vitro CPE (CytoPathic Effect) inhibition effect evaluation test, RSV type A
Type: cell-based
Conditions: human respiratory syncytial virus; inhibitory effect against RSV type A (RSV A2 strain), HEp-2 cells, CPE inhibition; read-out: EC50
Description: The test sample is diluted in advance to an appropriate concentration with DMSO, and 3-fold series of serial dilutions were prepared on a 384-well plate (0.32 μL/well). […] The luminescent signal was then measured by EnVision (PerkinElmer). […] In the case of evaluation against RSV type B, RSV B (Wash/18537 strain) was infected in the same manner as the type A, cultured for 5 days, and quantitated in the same manner as for the A2 strain.

| Compound | Experimental target | Observable | Result |
| --- | --- | --- | --- |
| CC(F)(F)c1nc(-c2cn(C3CCC(F)CC3)c3cc(O[C@H]4CC[C@H](N5CC(F)(F)C5)CC4)ccc23)ncc1C(=O)NC1(C(=O)O)C2CC3CC(C2)CC1C3 (single isomer, unassigned) | RSV A2 strain | EC50 | < 0.01 µM |
| O=C(NC1(C(=O)O)C2CC3CC(C2)CC1C3)c1cnc(-c2cn(C3CCC(F)(F)CC3)c3cc(O[C@@H]4CCN(C5COC5)C4)ccc23)nc1C(F)(F)F (some centres unmarked) | RSV A2 strain | EC50 | < 0.01 µM |
| CC(F)(F)c1nc(N2CC3(CCOCC3)c3cc(OC4CCC5(CC4)CN(CC(F)(F)F)C5)ccc32)ncc1C(=O)NC1(C(=O)O)C2CC3CC(C2)CC1C3 (centres unmarked) | RSV A2 strain | EC50 | < 0.01 µM |
| O=C(NC1(C(=O)O)C2CC3CC(C2)CC1C3)c1cnc(N2CC3(CCOCC3)c3cc(OC4CCN(c5ncc(C(F)(F)F)cn5)CC4)ccc32)nc1C(F)(F)F (centres unmarked) | RSV A2 strain | EC50 | < 0.01 µM |

The record that follows has no EC50 shown yet.
// query EC50 value for entry COC[C@@H](C)n1cc(-c2ncc(C(=O)NC3(C(=O)O)C4CC5CC(C4)CC3C5)c(C(C)(F)F)n2)c2ccc(OC3CC(N4CC(F)(F)C4)C3)cc21 (some centres unmarked) < 0.01 µM

* * *

tested on: RSV B (Wash/18537 strain); experiment: In vitro CPE (CytoPathic Effect) inhibition effect evaluation test, RSV type B; assay type: cell-based; settings: human respiratory syncytial virus, HEp-2, 120 h, HEp-2 cells, RSV B (Wash/18537 strain), 5 days, CellTiter-Glo; read-out: EC50, inhibitory effect against RSV type B (CPE inhibition)
Observable: pEC50
pEC50 here is simply -log10 of the concentration when that concentration is written in mol/L.

Previously resolved entries follow.
| Compound | Quantitative readout |
| --- | --- |
| O=C(N[C@]1(C(=O)O)[C@@H]2CC3C[C@H]1C[C@@](F)(C3)C2)c1cnc(N2CC3(CCOCC3)c3cc(OC4CCN(c5ncccn5)CC4)ccc32)nc1C(F)(F)F | 9.21 |
| O=C(NC1(C(=O)O)C2CC3CC(C2)CC1C3)c1cnc(-c2cn(C3CCC(F)(F)CC3)c3nc(OC4CCN(c5ncccn5)CC4)ccc23)nc1C(F)(F)F (centres unmarked) | 7.44 |
| O=C(NC1(C(=O)O)C2CC3CC(C2)CC1C3)c1cnc(N2CC(C3CCCC3)c3cc(OC4CCN(c5ncc(F)cn5)CC4)ccc32)nc1C(F)(F)F (racemic) | 7.55 |
| O=C(NC1(C(=O)O)CCCCC1)c1ccc(N2CCc3cc(OCCC4CCOCC4)ccc32)nc1C(F)(F)F | 6.96 |
| O=C(NC1(C(=O)O)C2CC3CC(C2)CC1C3)c1ccc(-c2cn(C3CCC(F)(F)CC3)c3cc(OC4CCN(c5ncccn5)CC4)ccc23)nc1C(F)(F)F (centres unmarked) | 8.48 |

// query pEC50 value for entry CC(F)(F)c1nc(N2CC3(CCOCC3)c3cc(O[C@H]4CC[C@H](N5CC(F)(F)C5)CC4)ncc32)ncc1C(=O)NC1(C(=O)O)C2CC3CC(C2)CC1C3 (some centres unmarked) 8.38

// query pEC50 value for entry CCC1(CC)CN(c2ncc(C(=O)NC3(C(=O)O)C4CC5CC(C4)CC3C5)c(C(C)(F)F)n2)c2ccc(O[C@H]3CC[C@H](N4CC(F)(F)C4)CC3)cc21 (some centres unmarked) 8.66

// query pEC50 value for entry O=C(NC1(C(=O)O)C2CC3CC(C2)CC1C3)c1cnc(N2CCc3cc(OCCC4CCOCC4)ccc32)nc1C(F)(F)F (centres unmarked) 7.80

// query pEC50 value for entry O=C(NC1(C(=O)O)C2CC3CC(C2)CC1C3)c1cnc(-c2cn(C3CCC(F)(F)CC3)c3cc(OC4CCN(c5ncccn5)CC4)ncc23)nc1C(F)(F)F (centres unmarked) 8.37

// query pEC50 value for entry O=C(NC1(C(=O)O)C2CC3CC(C2)CC1C3)c1cnc(-c2c3ccc(OC4CCN(c5ncccn5)CC4)cc3nn2C2CCOCC2)nc1C(F)(F)F (centres unmarked) 8.68

* * *

system: RSV A2 strain; assay: In vitro CPE (CytoPathic Effect) inhibition effect evaluation test, RSV type A; assay type: cell-based; conditions: human respiratory syncytial virus; inhibitory effect against RSV type A (RSV A2 strain), HEp-2 cells, CPE inhibition; read-out: EC50
pEC50: −log10 of the molar value.
Listed here: items and their measured pEC50.

| Molecule | Result |
| --- | --- |
| O=C(NC1(C(=O)O)C2CC3CC(C2)CC1C3)c1cnc(N2CC3(CCOCC3)c3cc(OCC(F)(F)F)ccc32)nc1C(F)(F)F (stereo not drawn) [Compound I-381] | > 8.00 |

// query pEC50 value for entry CC(NC(=O)c1cnc(-c2cn(C3CCC(F)(F)CC3)c3cc(OC4CCN(c5ncccn5)CC4)ccc23)nc1C(F)(F)F)(C(=O)O)C1CCCCC1 (racemic) [Compound I-267] > 8.00

// query pEC50 value for entry O=C(NC1(C(=O)O)C2CC3CC(C2)CC1C3)c1cnc(-c2cn(C3CCC(F)(F)CC3)c3cc(OC4CCN(c5nccs5)CC4)ccc23)nc1C(F)(F)F (stereo not drawn) [Compound I-236] > 8.00

* * *

Listed here: items and their measured EC50.
system: RSV A2 strain; assay: In vitro CPE (CytoPathic Effect) inhibition effect evaluation test, RSV type A; assay type: cell-based; details: human respiratory syncytial virus; inhibitory effect against RSV type A (RSV A2 strain), HEp-2 cells, CPE inhibition; read-out: EC50

Previously resolved entries follow.
| Compound | Experimental target | EC50 |
| --- | --- | --- |
| O=C(NC1(C(=O)O)C2CC3CC(C2)CC1C3)c1cnc(N2CC3(CCOCC3)c3cc(OC4CN(C5COC5)C4)ccc32)nc1C(F)(F)F (centres unmarked) | RSV A2 strain | < 10 nM |
| NC(=O)C1(NC(=O)c2ccc(N3CC4(CCOCC4)c4cc(OC5CCN(c6ncccn6)CC5)ccc43)nc2C(F)(F)F)C2CC3CC(C2)CC1C3 (centres unmarked) | RSV A2 strain | < 10 nM |
| Cc1nc(COc2ccc3c(c2)CCN3c2ncc(C(=O)NC3(C(=O)O)CCCCC3)c(C(F)(F)F)n2)cs1 | RSV A2 strain | 10 to 100 nM |
| CC(F)(F)c1nc(N2CC3(CCOCC3)c3cc(O[C@H]4CC[C@H](N5CC(F)(F)C5)CC4)ccc32)ncc1C(=O)N[C@]1(C(=O)O)[C@@H]2CC3C[C@H]1C[C@@](F)(C3)C2 | RSV A2 strain | < 10 nM |
| O=C(NC1(C(=O)O)C2CC3CC(C2)CC1C3)c1cnc(N2CC3(CCCC3)c3cc(OC4CCN(C5CC(F)(F)C5)CC4)ccc32)nc1C(F)(F)F (centres unmarked) | RSV A2 strain | < 10 nM |
| COc1ccc(N2CCC(Oc3ccc4c(c3)CCN4c3ncc(C(=O)NC4(C(=O)O)CCCCC4)c(C(F)(F)F)n3)CC2)nc1 | RSV A2 strain | < 10 nM |
| O=C(NC1(C(=O)O)C2CC3CC(C2)CC1C3)c1cnc(-c2cn(C3CCC(F)(F)C3)c3cc(OC4CCN(c5ncc(F)cn5)CC4)ccc23)nc1C(F)(F)F (racemic) | RSV A2 strain | < 10 nM |
| O=C(NC1(C(=O)O)C2CC3CC(C2)CC1C3)c1cnc(N2CC3(CCCCC3)c3cc(CN4CCN(c5ncccn5)CC4)ccc32)nc1C(F)(F)F (centres unmarked) | RSV A2 strain | < 10 nM |
| NC(=O)C1CC1c1ccc2c(c1)CCN2c1ncc(C(=O)NC2(C(=O)O)C3CC4CC(C3)CC2C4)c(C(F)(F)F)n1 (racemic) | RSV A2 strain | 10 to 100 nM |
| COCC(C)n1cc(-c2ncc(C(=O)NC3(C(=O)O)C4CC5CC(C4)CC3C5)c(C(C)(F)F)n2)c2ccc(OC3CCN(CC(C)(F)F)CC3)cc21 (centres unmarked) | RSV A2 strain | < 10 nM |

// query EC50 value for entry CN(CC(F)(F)F)[C@H]1CC[C@@H](Oc2ccc3c(-c4ncc(C(=O)NC5(C(=O)O)C6CC7CC(C6)CC5C7)c(C(F)(F)F)n4)cn(C4CCC(F)(F)CC4)c3c2)CC1 (some centres unmarked) < 10 nM
